system: Mycobacterium tuberculosis variant bovis BCG; test: microbe, parasite or virus in culture; format: functional
Please use TRUE for MIC90 under 6 µM and FALSE for everything else, ties included.

compound: O=C(CCCSc1ccccc1)NNC(=O)c1cccs1
class.name: TRUE

compound: Clc1ccc(-c2ccc3c(c2)CC(NCc2ccc(-n4cncn4)cc2)C3)cc1 (stereo unspecified)
class.name: FALSE

compound: O=C(O)c1ccccc1COc1ccccc1
class.name: TRUE

compound: COc1ccc(-c2nnc(NC(=O)c3ccc(Br)s3)o2)cc1
class.name: FALSE

compound: c1ccc(Nc2cc(-c3ccccc3)nc(-c3ccccn3)n2)cc1
class.name: TRUE

compound: NC(=O)c1nnc(Sc2ccnc(N3CCN(c4ccncc4)CC3)n2)n1-c1ccccc1
class.name: FALSE

compound: N=C(N)c1ccc(CCN2CCC(c3nc(COCC(F)(F)F)c(-c4ccc(F)cc4)o3)CC2)cc1.O=C(O)C(F)(F)F.O=C(O)C(F)(F)F
class.name: FALSE

compound: COCc1nc(N2CCNCC2)c2c(C)nn(-c3ccc(C)cc3)c2n1
class.name: TRUE

compound: O=C(c1cnn(C(=O)c2ccco2)c1)c1cc(F)ccc1O
class.name: TRUE

compound: COc1ccc(Nc2ccccc2NC(=O)c2ccc(O)nc2)cc1
class.name: FALSE

compound: CCc1c(C)nc(-c2cccc(C(F)(F)F)c2)nc1N1CCNCC1
class.name: FALSE

compound: CCCc1cc(=O)[nH]c(-n2nc(C)cc2NC(=O)C(CC)c2ccccc2)n1 (stereo unspecified)
class.name: TRUE

compound: CC(=O)c1cccc(NC(=O)N(CCc2cccnc2)Cc2csc(-c3ccc(CNCc4ccccc4)cc3)n2)c1
class.name: TRUE

compound: FC(F)(F)c1nnc2ccc(Cl)nn12
class.name: FALSE

compound: Cc1nc2ccccn2c1C(=O)NCc1ccccc1
class.name: TRUE

compound: COc1ccc(Nc2ccccc2N)cc1
class.name: TRUE
